logP values, listed per item
- procedure.text: Measurement of logP values by HPLC on reversed phase columns (EEC directive 79/831 Annex V.A8)
- Type: physicochemical
- experimental.setup: pH 2.7

Reference set, count: 5
- molecule: "CCC(=NOCc1ccc(OC)cc1)c1cc(-c2ncnc(Nc3cccc(Cl)c3)n2)ccn1 (mixture of isomers) [B68]"
  measure.name: "logP"
  recorded.value: 5.46
- molecule: "CN(CC1CC1)C(=O)c1cc(-c2ncnc(Nc3ccc(Cl)c(C(F)F)c3)n2)ccn1 [Example B390]"
  measure.name: "logP"
  recorded.value: 3.31
- molecule: "CCN(CC)C(=O)c1cc(-c2ccnc(Nc3ccnc(Cl)c3)n2)ccn1 [Example A27]"
  measure.name: "logP"
  recorded.value: 2.17
- molecule: "CCCCN(CCC)C(=O)c1cc(-c2ncnc(Nc3cccc(Cl)c3)n2)ccn1 [Example B126]"
  measure.name: "logP"
  recorded.value: 4.31
- molecule: "CCN(C)C(=S)c1cc(-c2ncnc(Nc3cccc(C(C)C)c3)n2)ccn1 [Example B259]"
  measure.name: "logP"
  recorded.value: 3.7

(Q) Data request, read-out logP, for CCN(C)C(=S)c1cc(-c2ncnc(Nc3ccc(F)c(C(F)F)c3)n2)ccn1 [Example B333]
(A) 3.04

(Q) Likewise for CCN(CC)C(=O)c1cc(-c2ncnc(Nc3cccc(F)c3)n2)ccn1 [Example B2] ?
(A) 2.72

(Q) Likewise for CCON(CC)C(=O)c1cc(-c2ncnc(Nc3ccsc3)n2)ccn1 [Example C31] ?
(A) 2.59

###

- procedure.text: Measurement of logP values by HPLC on reversed phase columns (EEC directive 79/831 Annex V.A8)
- Assay type: physicochemical
- experimental.setup: pH 2.7
measure.name: logP

Reference set, count: 3
- compound: "CN(C)C(=O)c1cc(-c2ncnc(Nc3cccc(OC(F)(F)C(F)F)c3)n2)ccn1"
  logP: 2.64
- compound: "O=C(NCCCN1CCCCCC1=O)c1cc(-c2ncnc(Nc3ccc(F)c(Cl)c3)n2)ccn1"
  logP: 3.19
- compound: "CC1CCCN(C(=O)c2cc(-c3ncnc(Nc4cccc(Cl)c4)n3)ccn2)C1C (stereo not shown)"
  logP: 3.78

Would you kindly look at the next entry?
(Q) Data request, read-out logP, for COC(C)C(C)N(C)C(=O)c1cc(-c2ncnc(Nc3cccc(Cl)c3)n2)ccn1 (stereo not shown)
(A) 3.15

###

- procedure.text: Measurement of logP values by HPLC on reversed phase columns (EEC directive 79/831 Annex V.A8)
- Type: physicochemical
- experimental.setup: pH 2.7
Rule: logP below 3 gives satisfied. Equal to or above 3 gives not satisfied.

- compound: "CCON=C(C)c1cc(-c2ncnc(Nc3cccc(Cl)c3)n2)ccn1 (mixture of isomers) [B31]"
  class.name: "not satisfied"

(Q) Criterion: logP strictly below 3. Is it met by CN(CC1CC1)C(=S)c1cc(-c2ncnc(Nc3cccc(F)c3)n2)ccn1 [Example B12] ?
(A) not satisfied

(Q) Likewise for COCCN(C)C(=O)c1cc(Nc2nccc(-c3ccnc(C(=O)N(C)CCOC)c3)n2)ccn1 [Example A4] ?
(A) satisfied

###

- procedure.text: Measurement of logP values by HPLC on reversed phase columns (EEC directive 79/831 Annex V.A8)
- Assay type: physicochemical
- experimental.setup: pH 2.7
measure.name: logP
Output spec: single numeric token, no unit.

Reference set, count: 5
- molecule: "CCN(CC)C(=S)c1cc(-c2ncnc(Nc3ccc(F)c(C(F)F)c3)n2)ccn1 [Example B327]"
  logP: 3.37
- molecule: "CCCCNC(=O)c1cc(-c2ncnc(Nc3cccc(Cl)c3)n2)ccn1 [Example B93]"
  logP: 4.11
- molecule: "CCN(C)C(=O)c1cc(-c2ncnc(Nc3cccc(SC)c3)n2)ccn1 [Example B222]"
  logP: 2.6
- molecule: "CCN1CCCC(NC(=O)c2cc(-c3ncnc(Nc4cccc(Cl)c4)n3)ccn2)C1 (centres unmarked) [B122]"
  logP: 1.82
- molecule: "CC(=NOC1CCCC1)c1cc(-c2ncnc(Nc3cccc(Cl)c3)n2)ccn1 (mixture of isomers) [Example B38]"
  logP: 5.79

(Q) Data request, read-out logP, for CCCN(C)C(=O)c1cc(-c2ncnc(Nc3cccc(OC(F)(F)F)c3)n2)ccn1 [Example B264]
(A) 3.37

(Q) Likewise for CC#CCON=C(C)c1cc(-c2ncnc(Nc3cccc(Cl)c3)n2)ccn1 (mixture of isomers) [Example B36] ?
(A) 4.41

(Q) Likewise for COCCN(C)C(=O)c1cc(-c2ncnc(Nc3cccc(Cl)c3)n2)ccn1 [Example B172] ?
(A) 2.57

###

- procedure.text: Measurement of logP values by HPLC on reversed phase columns (EEC directive 79/831 Annex V.A8)
- Assay type: physicochemical
- experimental.setup: pH 2.7
Classes are defined on chromatographic logP with ranges A: < 2; B: ≥ 2 and < 3; C: ≥ 3

Example entries and their recorded answers appear below.
- structure: "CCN(CC)C(=O)c1cc(-c2nc(Nc3ccsc3)ncc2C)ccn1"
  class.name: "B"
- structure: "CC(=NNCCC#N)c1cc(-c2ncnc(Nc3cccc(Cl)c3)n2)ccn1"
  class.name: "B"
- structure: "CCN(C)C(=O)c1cc(-c2ccnc(Nc3ccnc(Cl)c3)n2)ccn1"
  class.name: "A"
- structure: "CC(=O)c1cc(-c2ncnc(Nc3cccc(Cl)c3)n2)ccn1"
  class.name: "C"
- structure: "CCN(C)C(=O)c1cc(Nc2nccc(-c3ccnc(C(=O)N(C)CC)c3)n2)ccn1"
  class.name: "A"

(Q) Kindly identify the class of COC(=O)c1cc(-c2ncnc(Nc3ccsc3)n2)ccn1 .
(A) B

(Q) Likewise for CCN(CC)C(=O)c1cc(-c2ccnc(Nc3ccc(C(C)(C)C)s3)n2)ccn1 ?
(A) C

(Q) Likewise for O=C(NO)c1cc(-c2ncnc(Nc3cccc(Cl)c3)n2)ccn1 ?
(A) B

(Q) Likewise for CCOC(=O)c1cc(-c2ccnc(Nc3ccc(OC)nc3)n2)ccn1 ?
(A) A

(Q) Likewise for NC(=NO)c1cc(-c2ncnc(Nc3cccc(Cl)c3)n2)ccn1 ?
(A) B

###

- procedure.text: Measurement of logP values by HPLC on reversed phase columns (EEC directive 79/831 Annex V.A8)
- Assay type: physicochemical
- experimental.setup: pH 2.7
measure.name: logP
Output spec: single numeric token, no unit.

Reference set, count: 6
- molecule: "CC(C)N(C)C(=O)c1cc(-c2ncnc(Nc3cccc(OC(F)F)c3)n2)ccn1"
  logP: 2.78
- molecule: "CCN(CC)C(=O)c1cc(-c2ncnc(Nc3ccsc3)n2)ccn1"
  logP: 2.44
- molecule: "CCN(C)C(=O)c1cc(-c2ncnc(Nc3cccc(C(F)F)c3)n2)ccn1"
  logP: 2.44
- molecule: "CN(CC1CC1)C(=S)c1cc(-c2ncnc(Nc3cccc(Cl)c3)n2)ccn1"
  logP: 3.76
- molecule: "CN(CCO)C(=O)c1cc(-c2ncnc(Nc3cccc(Cl)c3)n2)ccn1"
  logP: 2.04
- molecule: "CCN(C)C(=S)c1cc(-c2ncnc(Nc3cccc(COC)c3)n2)ccn1"
  logP: 2.66

(Q) Data request, read-out logP, for CCCC#CCON=C(C)c1cc(-c2ncnc(Nc3cccc(Cl)c3)n2)ccn1 (mixture of isomers)
(A) 5.16

(Q) Likewise for COCCN(C)C(=O)c1cc(-c2ncnc(Nc3cccc(COC)c3)n2)ccn1 ?
(A) 2.05

###

- procedure.text: Measurement of logP values by HPLC on reversed phase columns (EEC directive 79/831 Annex V.A8)
- Format: physicochemical
- experimental.setup: pH 2.7
logP values, listed per item
Output spec: single numeric token, no unit.

- molecule: "CC(=NOCCN(C)C)c1cc(-c2ncnc(Nc3cccc(Cl)c3)n2)ccn1 (mixture of isomers)"
  logP: 1.99

(Q) Data request, read-out logP, for COc1cccc(Nc2ncnc(-c3ccnc(C(=O)N(C)CC(C)C)c3)n2)c1
(A) 2.90

(Q) Likewise for CCC(=O)c1cc(-c2ncnc(Nc3cccc(Cl)c3)n2)ccn1 ?
(A) 3.79

(Q) Likewise for CN(C)C(=O)c1cc(-c2ncnc(Nc3cccc(OC(F)F)c3)n2)ccn1 ?
(A) 2.25

###

- procedure.text: Measurement of logP values by HPLC on reversed phase columns (EEC directive 79/831 Annex V.A8)
- Type: physicochemical
- experimental.setup: pH 2.7
logP values, listed per item
Output spec: single numeric token, no unit.

- molecule: "O=C(c1cc(-c2ncnc(Nc3cccc(Cl)c3)n2)ccn1)N1CCCCCC1 [Example B138]"
  logP: 3.46

Would you kindly look at the next entry?
(Q) Data request, read-out logP, for CCN(C)C(=O)c1cc(-c2ncnc(Nc3ccsc3)n2)ccn1 [Example C17]
(A) 2.13

###

logP values, listed per item
- procedure.text: Measurement of logP values by HPLC on reversed phase columns (EEC directive 79/831 Annex V.A8)
- Assay type: physicochemical
- experimental.setup: pH 2.7
Output spec: single numeric token, no unit.

Reference set, count: 5
- molecule: "CSc1cccc(Nc2ncnc(-c3ccnc(C(=O)N4CCCC4)c3)n2)c1"
  recorded.value: 2.82
- molecule: "O=C(c1cc(-c2ncnc(Nc3cccc(Cl)c3)n2)ccn1)N1CCC(C(F)(F)F)CC1"
  recorded.value: 3.55
- molecule: "CCC(=NO)c1cc(-c2ncnc(Nc3cccc(Cl)c3)n2)ccn1 (mixture of isomers)"
  recorded.value: 3.24
- molecule: "CCC(C)NC(=O)c1cc(-c2ncnc(Nc3cccc(SC)c3)n2)ccn1 (stereo not drawn)"
  recorded.value: 3.94
- molecule: "Cc1ccc(Nc2ncnc(-c3ccnc(C(=O)N4CCCC4)c3)n2)cc1Cl"
  recorded.value: 3.26

(Q) Data request, read-out logP, for CN(C)C(=O)c1cc(-c2ccnc(Nc3ccnc(Cl)c3)n2)ccn1
(A) 1.69

(Q) Likewise for COCCNC(=O)c1cc(-c2ncnc(Nc3ccc(F)c(Cl)c3)n2)ccn1 ?
(A) 3.08

(Q) Likewise for COCc1cccc(Nc2ncnc(-c3ccnc(C(=O)N(C)C(C)C)c3)n2)c1 ?
(A) 2.42

(Q) Likewise for O=C(c1cc(Nc2nccc(-c3ccnc(C(=O)N4CCOCC4)c3)n2)ccn1)N1CCOCC1 ?
(A) 0.92
